- protocol text: Solubility of compound
- Format: physicochemical
reported endpoint: solubility (µM)
I only need the number, in µM, no unit after it.

Let me know recorded solubility for CN(C)CCNC(=O)[C@H]1c2ccccc2C[C@@H]1NC(=O)c1cc2ccccc2[nH]1 , thanks.
100

* * *

- study system: Mu-type opioid receptor (Homo sapiens)
- Sequence (P35372 whole entry): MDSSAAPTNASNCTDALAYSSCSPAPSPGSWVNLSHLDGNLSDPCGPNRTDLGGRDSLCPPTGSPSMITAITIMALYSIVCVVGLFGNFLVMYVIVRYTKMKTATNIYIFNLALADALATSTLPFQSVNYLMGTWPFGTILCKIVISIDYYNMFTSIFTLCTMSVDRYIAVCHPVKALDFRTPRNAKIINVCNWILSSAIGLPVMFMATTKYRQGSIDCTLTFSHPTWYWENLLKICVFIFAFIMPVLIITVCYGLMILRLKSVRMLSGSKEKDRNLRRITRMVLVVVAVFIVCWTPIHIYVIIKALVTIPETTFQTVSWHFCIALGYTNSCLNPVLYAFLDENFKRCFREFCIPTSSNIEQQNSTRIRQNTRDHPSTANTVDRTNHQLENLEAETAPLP
- protocol text: Agonist activity at mu1-opioid receptor (unknown origin) by cell-based assay
reported endpoint: pIC50
The scale used: pIC50 is minus the common logarithm of the concentration in molar units.

Tell me measured pIC50 for CN(C)CCNC(=O)[C@H]1c2ccccc2C[C@@H]1NC(=O)c1cc2ccccc2[nH]1 please.
6.63

* * *

- study system: Growth hormone secretagogue receptor type 1 (Homo sapiens, UniProt Q92847)
- Sequence (Q92847 whole entry): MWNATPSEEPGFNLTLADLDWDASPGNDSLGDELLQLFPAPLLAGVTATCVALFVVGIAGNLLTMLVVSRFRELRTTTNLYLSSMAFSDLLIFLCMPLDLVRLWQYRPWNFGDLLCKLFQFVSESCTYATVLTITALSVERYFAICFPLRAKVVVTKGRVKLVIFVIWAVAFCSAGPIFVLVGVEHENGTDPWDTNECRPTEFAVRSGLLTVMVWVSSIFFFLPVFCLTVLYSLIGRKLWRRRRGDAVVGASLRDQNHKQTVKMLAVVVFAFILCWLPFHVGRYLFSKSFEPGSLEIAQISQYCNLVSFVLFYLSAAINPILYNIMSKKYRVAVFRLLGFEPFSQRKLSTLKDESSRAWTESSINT
- protocol text: Agonist activity at human GHS receptor assessed as intracellular myo-IP1 secretion after 90 mins by HTRF analysis
- Type: functional, cell-based
- cond: read-out: EC50
pEC50: −log10 of the molar value.
// label = class 1 if pEC50 is not less than 8, otherwise class 0

Worked examples follow.
| compound | study system | label |
| --- | --- | --- |
| CN1CCC[C@@H]1CC(=O)N[C@H]1c2ccccc2C[C@@H]1NC(=O)c1ccc2c(ccn2C)c1 | Growth hormone secretagogue receptor type 1 (Homo sapiens, UniProt Q92847) | class 0 |
| CC(=O)N1CCO[C@H](C(=O)N[C@H]2c3ccccc3C[C@@H]2NC(=O)c2ccc3c(ccn3C)c2)C1 | Growth hormone secretagogue receptor type 1 (Homo sapiens, UniProt Q92847) | class 0 |
| Nc1ccncc1C(=O)N[C@H]1c2ccccc2C[C@@H]1NC(=O)c1nc2cc(F)c(F)cc2[nH]1 | Growth hormone secretagogue receptor type 1 (Homo sapiens, UniProt Q92847) | class 0 |
| CN1N=C2CCN(C(=O)[C@@H](COCc3ccccc3)NC(=O)C(C)(C)N)C[C@@]2(Cc2ccccc2)C1=O [CAPROMORELIN] | Growth hormone secretagogue receptor type 1 (Homo sapiens, UniProt Q92847) | class 1 |
| CN1CCCO[C@@H](C(=O)N[C@H]2c3ccccc3C[C@@H]2NC(=O)c2ccc3c(ccn3C)c2)C1 | Growth hormone secretagogue receptor type 1 (Homo sapiens, UniProt Q92847) | class 0 |
| CN1CCC[C@H]1CC(=O)N[C@H]1c2ccccc2C[C@@H]1NC(=O)c1ccc2c(ccn2C)c1 | Growth hormone secretagogue receptor type 1 (Homo sapiens, UniProt Q92847) | class 0 |
| Cc1ccc2[nH]c(C(=O)N[C@H]3Cc4ccccc4[C@@H]3NC(=O)[C@@H]3CNCCOC3)cc2c1 | Growth hormone secretagogue receptor type 1 (Homo sapiens, UniProt Q92847) | class 0 |
| CN1CC[C@H](C(=O)N[C@H]2c3ccccc3C[C@@H]2NC(=O)c2ccc3c(ccn3C)c2)C1 | Growth hormone secretagogue receptor type 1 (Homo sapiens, UniProt Q92847) | class 0 |
| CN1CC[C@@H](C(=O)N[C@H]2c3ccccc3C[C@@H]2NC(=O)c2ccc3c(ccn3C)c2)C1 | Growth hormone secretagogue receptor type 1 (Homo sapiens, UniProt Q92847) | class 0 |
| Cc1ccc2[nH]c(C(=O)N[C@H]3Cc4ccccc4[C@H]3NC(=O)CCN(C)C)cc2c1 | Growth hormone secretagogue receptor type 1 (Homo sapiens, UniProt Q92847) | class 0 |

Please indicate if the recorded pEC50 for CN1CCCCC(C(=O)N[C@H]2c3ccccc3C[C@@H]2NC(=O)c2ccc3c(ccn3C)c2)C1 (stereo in doubt; 27) meets or exceeds 8.
class 0

Please tell me: is the compound CN1CCC[C@H](C(=O)N[C@H]2c3ccccc3C[C@@H]2NC(=O)c2ccc3c(ccn3C)c2)C1 at or over 8 in terms of pEC50?
class 0

* * *

- protocol text: 1-octanol/aqueous buffer distribution coefficient, log D of compound at pH 7.4
- Format: physicochemical
- cond: 1-octanol/aqueous buffer, read-out: logD
Here the recorded logD is given for each entry.
Write the number on its own, no unit after it.

Example entries begin here.
| smiles structure | logD |
| --- | --- |
| CC(=O)N1CCO[C@H](C(=O)N[C@H]2c3ccccc3C[C@@H]2NC(=O)c2ccc3c(ccn3C)c2)C1 | 2.2 |
| CN1CCC[C@@H](C(=O)N[C@H]2c3ccccc3C[C@@H]2NC(=O)c2ccc3c(ccn3C)c2)C1 | 1.9 |

Lab note: next compound to report on.
Item Cc1ccc2[nH]c(C(=O)N[C@H]3Cc4ccccc4[C@@H]3C(=O)N(C)CCN(C)C)cc2c1 : provide logD
2.5

* * *

- study system: Growth hormone secretagogue receptor type 1 (Homo sapiens, UniProt Q92847)
- protocol text: Agonist activity at human GHS receptor assessed as intracellular myo-IP1 secretion after 90 mins by HTRF analysis
- Assay type: functional, cell-based
- cond: read-out: EC50
reported endpoint: EC50 (nM)
Dear colleague, please return just the value in nM, with no unit written.

The following compounds have reported results that may help.
| smiles structure | EC50 (nM) |
| --- | --- |
| CN1CCCO[C@H](C(=O)N[C@H]2c3ccccc3C[C@@H]2NC(=O)c2ccc3c(ccn3C)c2)C1 | 10 |
| Cc1ccc2[nH]c(C(=O)N[C@H]3Cc4ccccc4[C@@H]3NC(=O)c3cnccc3N)cc2c1 | 14 |
| Cc1ccc2[nH]c(C(=O)N[C@H]3Cc4ccccc4[C@@H]3C(=O)N[C@H]3CCCN(C)C3)cc2c1 | 0.1 |
| N#Cc1ccc2[nH]c(C(=O)N[C@H]3Cc4ccccc4[C@@H]3NC(=O)c3cnccc3N)cc2c1 | 44 |
| CN(C)CCC(=O)N[C@H]1c2ccccc2C[C@@H]1NC(=O)c1cc2cc(F)c(F)cc2[nH]1 | 35 |
| O=C(N[C@H]1Cc2ccccc2[C@@H]1NC(=O)[C@H]1CCNC1)c1cc2cc(F)ccc2[nH]1 | 47 |

Give recorded EC50. Cc1ccc2[nH]c(C(=O)N[C@H]3Cc4ccccc4[C@@H]3NC(=O)CCN(C)C)cc2c1
21

Look up and state reported EC50 for Cc1ccc2[nH]c(C(=O)N[C@@H]3Cc4ccccc4[C@@H]3NC(=O)CCN(C)C)cc2c1
1500

Identify measured EC50 corresponding to COCCNCCC(=O)N[C@H]1c2ccccc2C[C@@H]1NC(=O)c1cc2ccccc2n1C
160

Indicate its recorded EC50; the compound in question is Cc1ccc2[nH]c(C(=O)N[C@H]3Cc4ccccc4[C@@H]3NC(=O)[C@@H]3CN(C)CCO3)cc2c1
1.4

For the compound Cc1ccc2[nH]c(C(=O)N[C@H]3Cc4ccccc4[C@@H]3C(=O)N(C)CCN(C)C)cc2c1 , report EC50.
5

Where these numbers come from: ChEMBL document CHEMBL4130628
